Entries and their Nilaparvata lugens Mortality (%) 500 ppm values follow.
- System: Nilaparvata lugens
- protocol details: Insecticidal activities to plant hopper, spraying method
- Format: in vivo
- run conditions: in vivo
A complete answer gives the number and then names the unit.

Exercise: What value of Nilaparvata lugens Mortality (%) 500 ppm has been recorded for this entry: `CN=C(C(=C(C)c1ccc[nH]1)[N+](=O)[O-])N(C)Cc1ccc(Cl)nc1`
Solution: 100%

Exercise: Given `Cc1ccc(C=C(C2=NCCCN2Cc2ccc(Cl)nc2)[N+](=O)[O-])o1` , state its recorded Nilaparvata lugens Mortality (%) 500 ppm.
Solution: 78%

Exercise: Field request: Nilaparvata lugens Mortality (%) 500 ppm | item: `O=[N+]([O-])C(=Cc1oc(Br)cc1Br)C1=NCCCN1Cc1ccc(Cl)nc1`
Solution: 100%

Exercise: // lookup Nilaparvata lugens Mortality (%) 500 ppm for `CCN=C(C(=Cc1ccc(Br)o1)[N+](=O)[O-])N(CC)Cc1ccc(Cl)nc1`
Solution: 100%

----------
- Tested on: Plutella xylostella
- protocol details: Insecticidal activities to diamondback moth, feeding dipped leaves
- Assay type: in vivo
- run conditions: in vivo
readout label: Plutella xylostella Mortality (%) 500 ppm
// note: answer is a bare numeric in %

INSERT INTO measurements (molecule, unit_text, obs_value) VALUES
  ('O=[N+]([O-])C(=Cc1ccc(CO)o1)C1=NCCN1Cc1cnc(Cl)s1 [Compound 82]', '%', 100),
  ('CCC(c1ccc(Cl)nc1)N1CCN=C1C(=Cc1ccc[nH]1)[N+](=O)[O-] (racemic) [Compound 132]', '%', 99),
  ('Cc1csc(C=C(C2=[N+](C)CCN2Cc2ccc(Cl)nc2)[N+](=O)[O-])c1.[Cl-] [Compound 271]', '%', 100);

Now consider a different molecule.
Exercise: // map N#CC(=Cc1cc(Br)c(Br)o1)C1=NCCN1Cc1ccc(Cl)nc1 [Compound 144] to recorded Plutella xylostella Mortality (%) 500 ppm (system: Plutella xylostella)
Solution: 100

----------
- Tested on: Aphis craccivoral
- protocol details: Insecticidal activities to aphids, immersion method
- Type: in vivo
- run conditions: in vivo
readout label: Aphis craccivoral Mortality (%) 500 ppm
Include the unit after the number when you answer.

Use the examples below as a reference point.
INSERT INTO assay_data (compound, readout_label, obs_value) VALUES
  ('CCN=C(C(=Cc1ccc([N+](=O)[O-])o1)[N+](=O)[O-])N(C)Cc1ccc(Cl)nc1', 'Aphis craccivoral Mortality (%) 500 ppm', '96%'),
  ('CN=C(C(=Cc1ccc(Cl)s1)[N+](=O)[O-])N(C)Cc1cnc(Cl)s1', 'Aphis craccivoral Mortality (%) 500 ppm', '65%'),
  ('O=[N+]([O-])C(=Cc1ccc(Cl)s1)C1=NCCN1Cc1cnc(Cl)s1', 'Aphis craccivoral Mortality (%) 500 ppm', '100%'),
  ('O=[N+]([O-])C(=Cc1ccco1)C1=NCCN1Cc1ccccc1', 'Aphis craccivoral Mortality (%) 500 ppm', '86%'),
  ('O=[N+]([O-])C(=Cc1ccc(Cl)o1)C1=NCCN1CC1CCOC1 (centres unmarked)', 'Aphis craccivoral Mortality (%) 500 ppm', '46%'),
  ('C[N+]1=C(C(=Cc2ccc(Cl)o2)[N+](=O)[O-])N(Cc2cnc(Cl)s2)CC1.[Cl-]', 'Aphis craccivoral Mortality (%) 500 ppm', '100%'),
  ('C[N+]1=C(C(=Cc2oc(Br)cc2Br)[N+](=O)[O-])N(Cc2ccc(Cl)nc2)CC1.[Cl-]', 'Aphis craccivoral Mortality (%) 500 ppm', '100%');

As a next step, examine the compound that follows.
Exercise: I would be grateful if you could share the reported Aphis craccivoral Mortality (%) 500 ppm for `CCN(Cc1ccc(Cl)nc1)C(=NC)C(=C(C)c1ccc(Cl)o1)[N+](=O)[O-]` .
Solution: 86%

----------
Listed here: items and their measured Nilaparvata lugens Mortality (%) 500 ppm.
- Test system: Nilaparvata lugens
- protocol details: Insecticidal activities to plant hopper, spraying method
- Assay type: in vivo
- run conditions: in vivo
Dear colleague, please return just the value in %, with no unit written.

Example cases with answers are listed next.
INSERT INTO assay_data (compound, target_of_assay, unit_text, obs_value) VALUES
  ('O=[N+]([O-])C(=Cc1ccc(Cl)o1)C1=NCCCN1Cc1ccc(Cl)nc1', 'Nilaparvata lugens', '%', 100),
  ('N#CC(=Cc1cccs1)C1=NCCN1Cc1ccc(Cl)nc1', 'Nilaparvata lugens', '%', 100),
  ('O=[N+]([O-])C(=Cc1ccoc1)C1=NCCCN1Cc1ccc(Cl)nc1', 'Nilaparvata lugens', '%', 100),
  ('O=[N+]([O-])C(=Cc1cc(Br)co1)C1=NCCN1CC1CCOC1 (centres unmarked)', 'Nilaparvata lugens', '%', 88),
  ('CCN(C(=NC)C(=Cc1ccc([N+](=O)[O-])o1)[N+](=O)[O-])C(C)c1ccc(Cl)nc1 (centres unmarked)', 'Nilaparvata lugens', '%', 100);

Exercise: For the compound shown here, `CN=C(C(=Cc1cccs1)[N+](=O)[O-])N(C)Cc1cnc(Cl)s1` , give the reported Nilaparvata lugens Mortality (%) 500 ppm.
Solution: 67

Exercise: What does the data say about its Nilaparvata lugens Mortality (%) 500 ppm? Entry: `CCc1ccc(C=C(C2=NCCN2Cc2ccc(Cl)nc2)[N+](=O)[O-])o1`
Solution: 100

Exercise: Requested read-out: Nilaparvata lugens Mortality (%) 500 ppm. Entry: CC(c1ccc(Cl)nc1)N1CCN=C1C(=Cc1ccc(Br)o1)[N+](=O)[O-] (racemic)
Solution: 100

----------
- Test system: Nilaparvata lugens
- protocol details: Insecticidal activities to plant hopper, spraying method
- Assay type: in vivo
- run conditions: in vivo
readout label: Nilaparvata lugens Mortality (%) 500 ppm
The answer is to be given in %; state only the numeric part.

Exercise: GET /values?readout=Nilaparvata lugens Mortality (%) 500 ppm&system=Nilaparvata lugens&item= CCN(Cc1ccc(Cl)nc1)C(=NC)C(=Cc1ccc[nH]1)[N+](=O)[O-] [Compound 188]
Solution: 100

Exercise: Reported Nilaparvata lugens Mortality (%) 500 ppm for Nilaparvata lugens, given `CC(=C(C1=NCCN1Cc1ccc(Cl)nc1)[N+](=O)[O-])c1ccoc1` ?
Solution: 76

Exercise: Lab request: please report Nilaparvata lugens Mortality (%) 500 ppm under test system Nilaparvata lugens for `O=[N+]([O-])C(=Cc1ccc(F)nc1)C1=NCCN1Cc1ccc(Cl)nc1`
Solution: 87

Exercise: Missing value: Nilaparvata lugens Mortality (%) 500 ppm, Nilaparvata lugens, entry CN=C(C(=Cc1ccoc1)[N+](=O)[O-])N(C)Cc1ccc(Cl)nc1 [Compound 162] . Fill in?
Solution: 100

Exercise: Can you look up Nilaparvata lugens Mortality (%) 500 ppm on Nilaparvata lugens for `O=[N+]([O-])C(=Cc1ccc([N+](=O)[O-])s1)C1=NCCCN1Cc1ccc(Cl)nc1` ?
Solution: 100

----------
- Tested on: Plutella xylostella
- protocol details: Insecticidal activities to diamondback moth, feeding dipped leaves
- Format: in vivo
- run conditions: in vivo
Listing: Plutella xylostella Mortality (%) 500 ppm of selected compounds
Only the number, expressed in %, is required.

INSERT INTO measurements (compound, unit_text, obs_value) VALUES
  ('O=[N+]([O-])C(=Cc1cnc[nH]1)C1=NCCN1Cc1ccc(Cl)nc1', '%', 100),
  ('CC(c1ccc(Cl)nc1)N1CCN=C1C(=Cc1ccc(Cl)s1)[N+](=O)[O-] (racemic)', '%', 76),
  ('CC(c1ccc(Cl)nc1)N1CCN=C1C(=Cc1ccc(Cl)o1)[N+](=O)[O-] (racemic)', '%', 100),
  ('C[N+]1=C(C(=Cc2oc(Br)cc2Br)[N+](=O)[O-])N(Cc2ccc(Cl)nc2)CC1.[Cl-]', '%', 100);

Exercise: What value of measured Plutella xylostella Mortality (%) 500 ppm is listed for `C[N+]1=C(C(=Cc2cc(Br)cs2)[N+](=O)[O-])N(Cc2ccc(Cl)nc2)CC1.[Cl-]` ?
Solution: 100

Exercise: Report Plutella xylostella Mortality (%) 500 ppm for `O=[N+]([O-])C(=Cc1oc(Cl)cc1Cl)C1=NCCN1Cc1ccc(Cl)nc1` please.
Solution: 100

Exercise: Find the recorded Plutella xylostella Mortality (%) 500 ppm belonging to `C[N+]1=C(C(=Cc2ccsc2)[N+](=O)[O-])N(Cc2ccc(Cl)nc2)CC1.[Cl-]` and report it.
Solution: 89

Exercise: Returns the measured Plutella xylostella Mortality (%) 500 ppm for the input compound. Input: `CC[N+]1=C(C(=Cc2ccc(Br)o2)[N+](=O)[O-])N(Cc2ccc(Cl)nc2)CC1.[Cl-]`
Solution: 100

----------
- System: Plutella xylostella
- protocol details: Insecticidal activities to diamondback moth, feeding dipped leaves
- Type: in vivo
- run conditions: in vivo
- Procedure: Mortality (%)=(the number of the survival aphis in control group−the number of the survival aphis in the treatment group)/the number of the survival aphis in control group×100% (4): Insecticidal Activities to Diamondback Moth Diamondback moth (Plutella xylostella) was tested by the way of feeding dippedleaves. […] The number of killed insects was counted after 24 hours to calculate the mortality according to the above mentioned formula.
compounds and their reported Plutella xylostella Mortality (%) 500 ppm
Write the numeric value and follow it with the unit.

Exercise: Look at this compound and give its reported Plutella xylostella Mortality (%) 500 ppm. `C[N+]1=C(C(=Cc2cc(Br)co2)[N+](=O)[O-])N(Cc2ccc(Cl)nc2)CC1.[Cl-]`
Solution: 100%

Exercise: Fill in: Plutella xylostella Mortality (%) 500 ppm of `C[N+]1=C(C(=Cc2cccs2)[N+](=O)[O-])N(Cc2ccc(Cl)nc2)CC1.[Cl-]` is ___
Solution: 100%

Exercise: Give its Plutella xylostella Mortality (%) 500 ppm value. Item: CC(c1ccc(Cl)nc1)N1CCN=C1C(=Cc1ccc([N+](=O)[O-])s1)[N+](=O)[O-] (racemic)
Solution: 80%

Exercise: Endpoint output: Plutella xylostella Mortality (%) 500 ppm of CC(c1ccc(Cl)nc1)N1CCN=C1C(=Cc1ccc(Br)o1)[N+](=O)[O-] (racemic) . Value?
Solution: 100%
